Hi there, I'd appreciate the recorded half-life for every entry that follows.
assay: Determination of Stability at Acid pH (HPLC, 0.01N HCl); format: physicochemical; conditions: 0.01N HCl (pH 2), 37° C.
Give bare numbers, in h.

Could you report half-life for every entry in the following list?
1. OC(COc1cccc2ncccc12)CN1CCN([C@@H]2c3ccccc3[C@H]3C[C@H]3c3ccccc32)CC1 (relative stereo)
2. OC(COc1cccc2ncccc12)CN1CCN(C2c3ccccc3CCc3ccccc32)CC1 (stereo not drawn) [MS-073]

2.5
0.25
